Each item that follows carries a reported log10 O2 permeability.
endpoint: log10 O2 permeability (log10 of the value in Barrer)

molecule	log10 O2 permeability
*Oc1ccc(C23CC4CC(C2)CC(c2ccc(Oc5ccc(S(=O)(=O)c6ccc(*)cc6)cc5)cc2)(C4)C3)cc1 (repeat unit)	0.41
*CC(*)OC1CCCCC1 (repeat unit)	0.57
*OC(=O)Oc1c(Br)cc(C(C)(C)c2cc(Br)c(*)c(Br)c2)cc1Br (repeat unit)	0.16
*c1ccc(-c2ccc(Oc3ccc4c(c3)C3(CC4(C)C)CC(C)(C)c4ccc(Oc5ccc(-c6ccc(N7C(=O)c8ccc(C(c9ccc%10c(c9)C(=O)N(*)C%10=O)(C(F)(F)F)C(F)(F)F)cc8C7=O)cc6)cc5C(F)(F)F)cc43)c(C(F)(F)F)c2)cc1 (repeat unit)	1.56
*c1ccc(Cc2ccc(N3C(=O)c4ccc(C(c5ccc6c(c5)C(=O)N(*)C6=O)(C(F)(F)F)C(F)(F)F)cc4C3=O)cc2)cc1 (repeat unit)	0.59
*c1ccc(Oc2ccc(C3(c4ccc(Oc5ccc(N6C(=O)c7ccc(C(c8ccc9c(c8)C(=O)N(*)C9=O)(C(F)(F)F)C(F)(F)F)cc7C6=O)cc5)cc4)OC(=O)c4ccccc43)cc2)cc1 (repeat unit)	0.68
*c1ccc2c(-c3c(OC(C)=O)ccc4cc(N5C(=O)c6ccc(Oc7ccc8c(c7)C(=O)N(*)C8=O)cc6C5=O)ccc34)c(OC(C)=O)ccc2c1 (repeat unit)	-0.21
*c1ccc(C2(c3ccc(*)cc3)OC(=O)c3ccccc32)cc1 (repeat unit)	1.04
*[Si](C)(C)CCCCCC[Si](*)(C)C (repeat unit)	2.26
*c1ccc(Oc2ccc(C(C)(C)c3ccc(Oc4ccc(N5C(=O)c6ccc(Oc7ccc8c(c7)C(=O)N(*)C8=O)cc6C5=O)cc4)cc3)cc2)cc1 (repeat unit)	-0.31
*C=CCCC* (repeat unit)	2.49
*Oc1ccc(C(c2ccc(OC(=O)c3cc(C(*)=O)cc(C(C)(C)C)c3)cc2)(C(F)(F)F)C(F)(F)F)cc1 (repeat unit)	1.20
*c1c(C)cc(-c2cc(C)c(N3C(=O)c4cc5c(cc4C3=O)C3(C)c4ccccc4C5(C)c4cc5c(cc43)C(=O)N(*)C5=O)c3ccccc23)c2ccccc12 (repeat unit)	2.84
*/C(C)=C(/*)[Si](C)(C)CCCCCCCC (repeat unit)	1.36

====

Each item that follows carries a reported log10(N2 permeability).
endpoint: log10(N2 permeability) (log10 of the value in Barrer)

compound	measValue
*c1ccc(Oc2ccc(C(C)(C)c3ccc(Oc4ccc(N5C(=O)c6ccc(Oc7ccc8c(c7)C(=O)N(*)C8=O)cc6C5=O)cc4)cc3)cc2)cc1 (repeat unit)	-1.15
*c1cccc(Oc2ccc(C(c3ccc(Oc4cccc(-n5c(=O)c6cc7c(=O)n(*)c(=O)c7cc6c5=O)c4)cc3)(C(F)(F)F)C(F)(F)F)cc2)c1 (repeat unit)	-0.53
*C(=C(*)c1ccc(C(C)(C)C)cc1)c1ccccc1 (repeat unit)	2.97
*Oc1c(C)cc(C(C)(C)c2cccc(C(C)(C)c3cc(C)c(Oc4ccc(S(=O)(=O)c5ccc(*)cc5)cc4)c(C)c3)c2)cc1C (repeat unit)	-0.55
*c1ccc(C2(c3ccc(N4C(=O)c5ccc(C(c6ccc7c(c6)C(=O)N(*)C7=O)(C(F)(F)F)C(F)(F)F)cc5C4=O)cc3)c3cc(C(C)(C)C)ccc3-c3ccc(C(C)(C)C)cc32)cc1 (repeat unit)	1.15
*C(C(=O)OC(C)CC(C)C)C(*)C(=O)OC(C)(C)C (repeat unit)	1.20
*C(=C(*)c1ccc2c(c1)C(C)(C)c1ccccc1-2)c1ccc(Br)cc1 (repeat unit)	3.54
*C(=O)n1c(*)nc2cc3nc4c5ccc(*)c6c(*)ccc(c(=O)n4c3cc21)c65 (repeat unit)	-2.59
*C(=C(*)c1ccc2c(c1)C(C)(C)c1ccccc1-2)c1ccc([Si](C)(C)C)cc1 (repeat unit)	2.30
*CC(*)(C)C(=O)OC(C)(C)C (repeat unit)	-0.11
*c1cccc(C(c2cccc(-c3nnc(*)n3-c3ccccc3)c2)(C(F)(F)F)C(F)(F)F)c1 (repeat unit)	0.77
*C(=C(*)c1ccc([Si](c2ccccc2)(c2ccccc2)c2ccccc2)cc1)c1ccccc1 (repeat unit)	0.44
*/C(C)=C(/*)[Si](C)(C)CC (repeat unit)	2.69
*=CC1CC(C=*)C2C(=O)N(C34CC5CC(CC(C5)C3)C4)C(=O)C12 (repeat unit)	-0.30
*[Si](C)(C)CCCCCC[Si](*)(C)C (repeat unit)	1.91
*Oc1ccc(C(C)(C)c2ccc(OC(=O)c3cccc(C(*)=O)c3)c(C)c2)cc1C (repeat unit)	-1.20

====

Each item that follows carries a reported N2 permeability.

compound	N2 permeability (Barrer)
*Oc1ccc(S(=O)(=O)c2ccc(Oc3ccc4cc(*)ccc4c3)cc2)cc1 (repeat unit)	0.0507
*Oc1ccc(C(c2ccc(OC(=O)c3cc(C(*)=O)cc(C(C)(C)C)c3)cc2)(C(F)(F)F)C(F)(F)F)cc1 (repeat unit)	3.72
*Nc1ccc(C(C)(C)c2ccc(NC(=O)c3ccc(Oc4cc(C(C)(C)C)c(Oc5ccc(C(*)=O)cc5)cc4C(C)(C)C)cc3)cc2)cc1 (repeat unit)	0.46
*OC(=O)Oc1c(Br)cc(C(C)(C)c2cc(Br)c(*)c(Br)c2)cc1Br (repeat unit)	0.191
*Oc1c(C)cc(*)c(C(=O)c2ccc(Cl)cc2)c1C (repeat unit)	1.8
*C(=C(*)c1ccc(C[Si](C)(C)C)cc1)c1ccccc1 (repeat unit)	44
*C(=C(*)c1ccc2c(c1)C(C)(C)CC2(C)C)c1ccccc1 (repeat unit)	11600
*c1ccc(Oc2cc3c(cc2C)OC2(CC3(C)C)CC(C)(C)c3cc(Oc4ccc(*)cc4)c(C)cc3O2)cc1 (repeat unit)	1.33
*c1ccc(-c2ccc(Oc3ccc4c(c3)C3(CC4(C)C)CC(C)(C)c4ccc(Oc5ccc(-c6ccc(N7C(=O)c8ccc(C(c9ccc%10c(c9)C(=O)N(*)C%10=O)(C(F)(F)F)C(F)(F)F)cc8C7=O)cc6)cc5C(F)(F)F)cc43)c(C(F)(F)F)c2)cc1 (repeat unit)	3.35
*c1ccc(Cc2ccc(N3C(=O)c4ccc(-c5ccc6c(c5)C(=O)N(*)C6=O)cc4C3=O)cc2F)c(F)c1 (repeat unit)	0.0203
*C(Cl)CCCC(*)S(=O)(=O)Cl (repeat unit)	0.955
*c1ccc2c(c1)-c1nc3ccc(-c4ccc5c(c4)nc4n5C(=O)c5cc(C(c6ccc(-c7nc8cc(C(c9ccc%10oc(-c%11ccc(C(*)(C(F)(F)F)C(F)(F)F)cc%11)nc%10c9)(C(F)(F)F)C(F)(F)F)ccc8o7)cc6)(C(F)(F)F)C(F)(F)F)ccc5-4)cc3n1C2=O (repeat unit)	85
*c1ccc(-c2ccc(N3C(=O)c4ccc([Si](C)(C)c5ccc6c(c5)C(=O)N(*)C6=O)cc4C3=O)c(C)c2)cc1C (repeat unit)	0.094
*c1c(C)cc2c(c1C)C1c3ccccc3C2c2cc(C)c(N3C(=O)C4C5C=CC(C6C(=O)N(*)C(=O)C56)C4C3=O)c(C)c21 (repeat unit)	71
*c1ccc(C2(c3ccc(*)cc3)OC(=O)c3ccccc32)cc1 (repeat unit)	2.39
*c1ccc(C(C)(C)c2cccc(N3C(=O)c4ccc(C(c5ccc6c(c5)C(=O)N(*)C6=O)(C(F)(F)F)C(F)(F)F)cc4C3=O)c2)cc1 (repeat unit)	0.473
*C=C(*)C(C)(C)C (repeat unit)	43
*Oc1ccc(C(C)(C)c2cccc(C(C)(C)c3ccc(Oc4ccc(S(=O)(=O)c5ccc(*)cc5)cc4)cc3)c2)cc1 (repeat unit)	0.11
*Oc1cc2c(cc1O*)C1(CC2(C)CC)c2cc3c(cc2C(C)(CC)C1C)Oc1c(C#N)c(*)c(*)c(C#N)c1O3 (repeat unit)	320
*CC(*)OCC1CC2CC1C1CCCC21 (repeat unit)	0.13
*c1ccc(Oc2ccc(N3C(=O)c4cc5c(cc4C3=O)S(=O)(=O)c3cc4c(cc3S5(=O)=O)C(=O)N(*)C4=O)cc2)cc1 (repeat unit)	0.27
*Oc1cc2c(cc1O*)C1(c3ccccc3-c3cc4c(cc31)Oc1c(C#N)c(*)c(*)c(C#N)c1O4)c1cc(C)c(C)cc1-2 (repeat unit)	341
*=CC1CC(C=*)C2C(=O)N(c3ccccc3)C(=O)C12 (repeat unit)	0.31
*CC=C(C*)[Si](C)(C)OC(C)C (repeat unit)	1.5
*C(=C(*)c1ccc([Si](C)(C)CCCCCCCC)cc1)c1ccccc1 (repeat unit)	11
*c1ccc(Oc2ccc(-c3ccc(-c4ccc(Oc5ccc(N6C(=O)c7ccc(C(c8ccc9c(c8)C(=O)N(*)C9=O)(C(F)(F)F)C(F)(F)F)cc7C6=O)cc5)c(C(F)(F)F)c4)cc3)cc2C(F)(F)F)cc1 (repeat unit)	2.87
*Nc1ccc(Oc2ccc(Oc3ccc(NC(=O)CN4C(=O)c5ccc(C(*)=O)cc5C4=O)cc3)cc2)cc1 (repeat unit)	0.02
*C(=C(*)c1ccc(-c2ccc([Si](C)(C)C)cc2)cc1)c1ccccc1 (repeat unit)	160
*CC=C(C*)[Si](OC(C)C)(OC(C)C)OC(C)C (repeat unit)	109
